I'd appreciate it if you could supply S1P3 (% inh) values for the items below.
target: human S1P3 receptor (Homo sapiens (Human), UniProt Q99500); assay: Activation or block of activation of human S1P3 receptor, Ca+2 FLIPR assay; format: cell-based; details: T24 cells stably expressing the human S1P3 receptor; value in brackets
Sequence (Q99500 whole entry): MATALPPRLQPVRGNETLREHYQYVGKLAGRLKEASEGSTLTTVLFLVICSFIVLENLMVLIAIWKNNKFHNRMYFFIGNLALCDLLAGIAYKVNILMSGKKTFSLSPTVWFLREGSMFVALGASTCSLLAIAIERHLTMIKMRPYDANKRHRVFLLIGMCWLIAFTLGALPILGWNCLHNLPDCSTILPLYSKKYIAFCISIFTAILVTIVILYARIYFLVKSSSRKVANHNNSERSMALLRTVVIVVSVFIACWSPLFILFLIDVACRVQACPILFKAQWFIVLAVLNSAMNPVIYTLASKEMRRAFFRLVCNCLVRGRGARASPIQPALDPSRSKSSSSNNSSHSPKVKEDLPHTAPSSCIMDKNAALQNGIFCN
Numbers only, in %.

COMPOUND	UNIT LABEL	S1P3 (% inh)
C#CCNC(=O)c1ccc2c(C(=O)NCc3ccc(F)c(F)c3)c(C(C)C)n(Cc3ccccc3)c2c1 [Compound 69]	%	98

Quick batch: S1P3 (% inh) for everything below.
1. CC(C)COc1ccc2c(C(=O)NCc3cncc(F)c3)c(C(C)C)n(Cc3ccccn3)c2c1 [Compound 149]
2. COCCOc1ccc2c(C(=O)NCc3ccc(F)c(F)c3)c(C(C)C)n(Cc3ccccc3)c2c1 [Compound 17]
3. [2H]C([2H])([2H])C([2H])(Oc1ccc2c(C(=O)NCc3ccc(F)c(F)c3)c(C(=C)C)n(Cc3ccccn3)c2c1)C([2H])([2H])[2H] [Compound 199]

1: 100; 2: 99; 3: 100

Quick batch: S1P3 (% inh) for everything below.
1. CC[C@H]1COC(c2ccc3c(C(=O)NCc4cc(F)cc(F)c4)c(C(C)C)n(Cc4ccccn4)c3c2)=N1 [Compound 85]
2. CC(C)c1c(C(=O)NCc2ccc(F)c(F)c2)c2ccc(OC3CCOCC3)cc2n1Cc1ccccn1 [Compound 143]
3. CC(C)c1c(C(=O)NCc2ccc(F)c(F)c2)c2ccc(N)cc2n1Cc1ccccc1 [Compound 125]
4. CC(C)c1c(C(=O)NCc2ccc(F)c(F)c2)c2ccc(C3=N[C@@H](C)CO3)cc2n1Cc1cccnc1 [Compound 82]

1. 100
2. 99
3. 90
4. 100

Quick batch: S1P3 (% inh) for everything below.
1. CC[C@H]1COC(c2ccc3c(C(=O)NCc4ccc(F)c(F)c4)c(C(C)C)n(Cc4ccccn4)c3c2)=N1 [Compound 80]
2. CC(C)c1c(C(=O)NCc2cccnc2)c2ccc(OC3CCCC3)cc2n1Cc1ccccn1
3. CC(C)Oc1ccc2c(C(=O)NCc3ccc(F)c(F)c3)c(C(C)C)n(Cc3ncco3)c2c1 [Compound 213]

[99, 95, 100]

Quick batch: S1P3 (% inh) for everything below.
1. CC(C)c1c(C(=O)NCc2ccc(F)c(F)c2)c2ccc(/C=N/N(C)C)cc2n1Cc1ccccn1
2. CC(C)c1c(C(=O)NCc2ccc(F)c(F)c2)c2ccc(C(=O)O)cc2n1Cc1ccccc1
3. CC(C)c1c(C(=O)NCc2ccc(F)c(F)c2)c2ccc(C3=N[C@H](C)CO3)cc2n1Cc1ccccc1 [Compound 74]

[100, 40, 99]

Fill in the blank: the reported S1P3 (% inh) of CC(C)c1c(C(=O)NCc2cc(F)cc(F)c2)c2ccc(C3=N[C@@H](C)CO3)cc2n1Cc1ccccn1 [Compound 84] is ____.
89

###

target: human S1P3 receptor (Homo sapiens (Human)); test: Activation or block of activation of human S1P3 receptor, Ca+2 FLIPR assay; format: cell-based; conditions: read-out: S1P3 IC50
OUTCOME MEASURE: pIC50
One number for each entry, as −log10 of the molar value.

COMPOUND	MEASURED VALUE
CC(C)c1c(C(=O)NCc2ccc(F)cc2)c2ccc(NC3CCCC3)cc2n1Cc1ccccc1 [Compound 192]	7.15
CC(C)c1c(C(=O)NCc2ccc(F)c(F)c2)c2ccc(OCc3ccccc3)cc2n1Cc1ccccc1 [Compound 15]	6.59
CC(C)c1c(C(=O)NCc2ccc(F)c(F)c2)c2ccc(OC(=O)C(C)(C)C)cc2n1Cc1ccccc1 [Compound 22]	8.40

Quick batch: pIC50 for everything below.
1. CCOC(=O)Cn1c(C(C)C)c(C(=O)NCc2ccc(F)c(F)c2)c2ccc(OC3CCCC3)cc21 [Compound 223]
2. CC(C)c1c(C(=O)NCc2ccc(F)c(F)c2)c2ccc(OC3CCCC3)cc2n1Cc1ccccc1 [Compound 16]
3. COCOc1ccc2c(C(=O)NCc3ccc(F)c(F)c3)c(C(C)C)n(Cc3ccccc3)c2c1 [Compound 26]
4. CC(C)C(=O)Oc1ccc2c(C(=O)NCc3ccc(F)c(F)c3)c(C(C)C)n(Cc3ccccc3)c2c1 [Compound 25]
5. CC(C)c1c(C(=O)NCc2ccc(F)c(F)c2)c2ccc(C3=NCCO3)cc2n1Cc1ccccc1 [Compound 70]
6. CC(C)c1c(C(=O)NCc2ccc(F)c(F)c2)c2ccc(O)cc2n1Cc1cccnc1 [Compound 151]
7. CON=C(C)c1c(C(=O)NCc2ccc(F)c(F)c2)c2ccc(OC(C)C)cc2n1Cc1ccccn1 (stereo in doubt) [Compound 111]
8. CC(C)c1c(C(=O)NCc2ccc(F)c(F)c2)c2ccc([N+](=O)[O-])cc2n1Cc1ccccc1 [Compound 124]

1: 7.62; 2: 8.52; 3: 7.41; 4: 7.85; 5: 7.44; 6: 7.19; 7: 6.58; 8: 6.62

###

biological target: human S1P3 receptor (Homo sapiens (Human)); assay: Activation or block of activation of human S1P3 receptor, Ca+2 FLIPR assay; format: cell-based; conditions: T24 cells stably expressing the human S1P3 receptor; second concentration in the cell; read-out: S1P3 Kb
Kb below 2 nM gives NO; Kb at or above it gives YES.

Example results:
COMPOUND	LABEL CLASS
CC(C)c1c(C(=O)NCc2ccc(F)c(F)c2)c2ccc(OC3CCOC3)cc2n1Cc1ccccn1 (stereo not drawn)	YES
CCOC(=O)c1ccc2c(C(=O)NCc3ccc(F)c(F)c3)c(C(C)C)n(Cc3ccccc3)c2c1 [Compound 43]	YES
CC(C)c1c(C(=O)NCc2ccc(F)c(F)c2)c2ccc(OC3CCCC3)cc2n1Cc1ccccn1	YES

Note: attention shifts to another entry.
Hello, I need to know if CC(C)COc1ccc2c(C(=O)NCc3ccc(F)c(F)c3)c(C(C)C)n(Cc3ccccc3)c2c1 [Compound 13] has measured Kb not below 2 nM. Thanks!
NO

###

I'd appreciate it if you could supply IC50 values for the items below.
biological target: human S1P3 receptor (Homo sapiens (Human), UniProt Q99500); test: Activation or block of activation of human S1P3 receptor, Ca+2 FLIPR assay; format: cell-based; conditions: T24 cells stably expressing the human S1P3 receptor; FLIPR Ca+2 response; 0.61 nM to 10,000 nM; read-out: S1P3 IC50
One number for each entry, in nM.

The following compounds have reported results that may help.
COMPOUND	IC50 / nM
CCOC(=O)c1ccc2c(C(=O)NCc3ccc(F)cc3)c(C(C)C)n(Cc3ccccn3)c2c1	69
CC(C)c1c(C(=O)NCc2cccnc2)c2ccc(OC3CCCC3)cc2n1Cc1ccccn1	86

Quick batch: IC50 for everything below.
1. CC[C@H]1COC(c2ccc3c(C(=O)NCc4ccc(F)c(F)c4)c(C(C)C)n(Cc4ccccn4)c3c2)=N1
2. CC(C)c1c(C(=O)NCc2ccc(F)c(F)c2)c2ccc(C3=NC(C)(C)CO3)cc2n1Cc1ccccc1
3. COC(=O)c1c(C(=O)NCc2ccc(F)c(F)c2)c2ccc(OC(C)C)cc2n1Cc1ccccn1
4. CC(C)c1c(C(=O)NCc2ccc(F)cc2)c2ccc(C3=N[C@@H](C)CO3)cc2n1Cc1ccccn1

7
47
87
48

###

target: human S1P3 receptor (Homo sapiens (Human), UniProt Q99500); experiment: Activation or block of activation of human S1P3 receptor, Ca+2 FLIPR assay; type: cell-based; conditions: T24 cells stably expressing the human S1P3 receptor; value in brackets
OUTCOME MEASURE: S1P3 (% inh) (%)
Answers are plain numbers, in %.

MOLECULE	MEASURED VALUE
CC(C)Oc1ccc2c(C(=O)NCc3ccc(F)c(F)c3)c(CN(C)C)n(Cc3ccccn3)c2c1	100
CO/N=C/c1ccc2c(C(=O)NCc3ccc(F)c(F)c3)c(C(C)C)n(Cc3ccccn3)c2c1	100
CC(C)c1c(C(=O)NCc2ccc(F)c(F)c2)c2ccc(N3CCCC3=O)cc2n1Cc1ccccc1	99
Cc1cc(Cn2c(C(C)C)c(C(=O)NCc3ccc(F)c(F)c3)c3ccc(O)cc32)no1	67
CC(C)c1c(C(=O)NCc2ccc(F)c(F)c2)c2ccc(NC3=NCCS3)cc2n1Cc1ccccn1	80
CCO/N=C(\C)c1ccc2c(C(=O)NCc3ccc(F)c(F)c3)c(C(C)C)n(Cc3ccccc3)c2c1	98

Quick batch: S1P3 (% inh) for everything below.
1. COC(=O)c1c(C(=O)NCc2ccc(F)c(F)c2)c2ccc(OC(C)C)cc2n1Cc1ccccn1
2. CC(C)NCc1ccc2c(C(=O)NCc3ccc(F)c(F)c3)c(C(C)C)n(Cc3ccccc3)c2c1

1. 100
2. 84

###

I'd appreciate it if you could supply S1P3 (% inh) values for the items below.
Molecular target: human S1P3 receptor (Homo sapiens (Human), UniProt Q99500)
Test: Activation or block of activation of human S1P3 receptor, Ca+2 FLIPR assay
Format: cell-based
Conditions: T24 cells stably expressing the human S1P3 receptor; value in brackets
Protocol: Compounds were assessed for their ability to activate or block activation of the human S1P3 receptor in T24 cells stably expressing the human S1P3 receptor. […] Extracellular dye was removed by washing the cell plates four times prior to placing the plates in the FLIPR (Fluorometric Imaging Plate Reader, Molecular Devices). […] IC50 values were determined through a […] analysis using the Levenburg Marquardt algorithm.
Give bare numbers, in %.

COMPOUND	OUTCOME MEASURE	MEASURED VALUE
CO/N=C/c1ccc2c(C(=O)NCc3ccc(F)c(F)c3)c(C(C)C)n(Cc3ccccc3)c2c1	S1P3 (% inh)	99

Quick batch: S1P3 (% inh) for everything below.
1. CC(C)c1c(C(=O)NCc2ccc(F)c(F)c2)c2ccc(OC(=O)N(C)C)cc2n1Cc1ccccc1 [Compound 21]
2. CC(C)c1c(C(=O)NCc2ccc(F)c(F)c2)c2ccc(OC3CCOC3)cc2n1Cc1ccccc1 (centres unmarked) [Compound 19]
3. CCCCOc1ccc2c(C(=O)NCc3ccc(F)c(F)c3)c(C(C)C)n(Cc3ccccc3)c2c1 [Compound 12]
4. CC(C)c1c(C(=O)NCc2ccc(F)c(F)c2)c2ccc(/C=N/OC(C)(C)C)cc2n1Cc1ccccc1
5. CC(C)c1c(C(=O)NCc2ccc(C(F)(F)F)nc2)c2ccc(OC3CCCC3)cc2n1Cc1ccccn1 [Compound 142]

1. 99
2. 100
3. 100
4. 99
5. 99

Quick batch: S1P3 (% inh) for everything below.
1. CC(C)NC(=O)c1ccc2c(C(=O)NCc3ccc(F)c(F)c3)c(C(C)C)n(Cc3ccccc3)c2c1
2. CC(C)Oc1ccc2c(C(=O)NCc3ccc(F)c(F)c3)c(C(C)O)n(Cc3ccccn3)c2c1 (centres unmarked) [Compound 108]

[100, 98]
